tested_target: human P2X4 (Homo sapiens, UniProt Q99571)
Sequence (Q99571 whole entry): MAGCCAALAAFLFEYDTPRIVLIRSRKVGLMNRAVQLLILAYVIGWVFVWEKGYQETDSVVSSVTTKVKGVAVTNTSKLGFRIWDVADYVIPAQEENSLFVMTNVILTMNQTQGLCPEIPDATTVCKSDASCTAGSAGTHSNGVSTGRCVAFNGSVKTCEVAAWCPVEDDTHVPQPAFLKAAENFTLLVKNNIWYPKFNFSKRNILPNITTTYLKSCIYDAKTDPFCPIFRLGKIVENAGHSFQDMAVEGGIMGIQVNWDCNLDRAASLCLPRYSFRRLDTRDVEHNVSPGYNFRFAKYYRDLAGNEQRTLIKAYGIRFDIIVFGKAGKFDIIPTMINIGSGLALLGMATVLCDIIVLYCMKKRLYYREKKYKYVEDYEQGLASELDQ
measurement_protocol: Human P2X4 HEK Cell FLIPR Assay
setup_conditions: HEK293 cells, agonist Bz-ATP at EC80; individual values listed where some fall outside detection range
Overview of recorded log10 IC50 for various compounds
measured_metric: log10 IC50 (log10 of the value in nM)

NS(=O)(=O)c1cc(NC(=O)Cc2ccccc2[N+](=O)[O-])ccc1-n1cc(C(F)(F)F)cn1 [Example 110] = 2.43
N#Cc1csc(-c2ccc(NC(=O)Cc3ccccc3Cl)cc2S(N)(=O)=O)n1 [Example 428] = 1.43
Cn1cc(-c2ccc(NC(=O)Cc3cccc(F)c3Cl)cc2S(N)(=O)=O)cn1 [Example 334] = 1.26
NS(=O)(=O)c1cc(NC(=O)Cc2ccc(C(F)(F)F)cc2Cl)c(C(F)(F)F)cc1-n1cc(F)cn1 [Example 538] = 3.59
NS(=O)(=O)c1cc(NC(=O)Cc2ccccc2Cl)ccc1-n1ccnc1 [Example 9] = 0.85
NS(=O)(=O)c1cc(NC(=O)Cc2ccccc2OC(F)F)ccc1-n1cnc(C(F)(F)F)n1 [Example 57] = 2.15
COc1ccc(CC(=O)Nc2ccc(-c3cncc(C(F)(F)F)c3)c(S(N)(=O)=O)c2)c(F)c1 [Example 457] = 2.75
N#Cc1cnn(-c2ccc(NC(=O)Cc3cc(C(F)(F)F)ccc3Cl)cc2S(N)(=O)=O)c1 [Example 485] = 2.11

* * *

tested_target: human P2X4 (Homo sapiens)
measurement_protocol: Human P2X4 HEK Cell FLIPR Assay
Assay type: cell-based
setup_conditions: HEK293, HEK293 cells, agonist Bz-ATP at EC80; percentage of maximal inhibition; read-out: Human P2X4 HEK Cells (FLIPR Assay) avg Efficacy [%]
measured_metric: Emax

NS(=O)(=O)c1cc(NC(=O)Cc2cccc(F)c2)ccc1-n1cnc(C(F)(F)F)n1 = 74%
NS(=O)(=O)c1cc(NC(=O)Cc2ccccc2C(F)(F)F)ccc1-n1cc(F)cn1 = 92%
N#Cc1cnn(-c2ccc(NC(=O)Cc3cccc(F)c3)cc2S(N)(=O)=O)c1 = 71%
NS(=O)(=O)c1cc(NC(=O)Cc2ccccc2F)ccc1-c1cnn(C2CC2)c1 = 102%
NS(=O)(=O)c1cc(NC(=O)Cc2ccccc2Cl)c(C(F)(F)F)cc1-c1cnn(C(F)F)c1 = 67%
NS(=O)(=O)c1cc(NC(=O)Cc2ccccc2Cl)ccc1-c1cnn(C(F)F)c1 = 95%
N#Cc1cnn(-c2ccc(NC(=O)Cc3ccccc3F)cc2S(N)(=O)=O)c1 = 82%
NS(=O)(=O)c1cc(NC(=O)Cc2ccccc2Cl)ccc1-c1noc(C(F)(F)F)n1 = 81%

* * *

Overview of recorded IC50 for various compounds
tested_target: human P2X4 (Homo sapiens, UniProt Q99571)
measurement_protocol: Human P2X4 HEK Cell FLIPR Assay
setup_conditions: HEK293 cells, agonist Bz-ATP at EC80; individual values listed where some fall outside detection range
measured_metric: IC50 (µM)

Cc1cnn(-c2ccc(NC(=O)Cc3ccccc3Cl)cc2S(N)(=O)=O)c1 = 0.084
NS(=O)(=O)c1cc(NC(=O)Cc2ccccc2C(F)F)ccc1-n1cc(F)cn1 = 0.134
Cc1coc(-c2ccc(NC(=O)Cc3ccccc3Cl)cc2S(N)(=O)=O)n1 = 0.597
NS(=O)(=O)c1cc(NC(=O)Cc2ccc(C(F)F)cc2)ccc1-c1cncc(C(F)(F)F)c1 = 1.07

* * *

tested_target: human P2X4 (Homo sapiens, UniProt Q99571)
measurement_protocol: Human P2X4 HEK Cell FLIPR Assay
setup_conditions: HEK293 cells, agonist Bz-ATP at EC80; individual values listed where some fall outside detection range
pIC50: −log10 of the molar value.
Overview of recorded pIC50 for various compounds
measured_metric: pIC50

CCOc1ccccc1CC(=O)Nc1ccc(-n2cc(C(F)(F)F)cn2)c(S(N)(=O)=O)c1 = 6.57
NS(=O)(=O)c1cc(NC(=O)Cc2ccccc2Cl)ccc1-n1cccc(Cl)c1=O = 6.59
Cn1cc(-c2ccc(NC(=O)Cc3c(F)cccc3Cl)cc2S(N)(=O)=O)cn1 = 7.48

* * *

tested_target: human P2X4 (Homo sapiens, UniProt Q99571)
measurement_protocol: Human P2X4 HEK Cell FLIPR Assay
Assay type: cell-based
setup_conditions: HEK293, HEK293 cells, agonist Bz-ATP at EC80; percentage of maximal inhibition; read-out: Human P2X4 HEK Cells (FLIPR Assay) avg Efficacy [%]
Overview of recorded Emax for various compounds
measured_metric: Emax (%)

N#Cc1cc(NC(=O)Cc2ccccc2Cl)cc(S(N)(=O)=O)c1-n1cc(F)cn1 = 64
CC(C)Oc1ncccc1-c1ccc(NC(=O)Cc2ccccc2Cl)cc1S(N)(=O)=O = 109
NS(=O)(=O)c1cc(NC(=O)Cc2ccccc2Cl)ccc1-c1c[nH]c(C(=O)C(F)F)c1 = 95
NS(=O)(=O)c1cc(NC(=O)Cc2ccccc2Cl)ccc1-n1ccc(C(F)(F)F)n1 = 31
NS(=O)(=O)c1cc(NC(=O)Cc2cc(F)ccc2Cl)ccc1-n1cnc(C(F)(F)F)n1 = 54
NS(=O)(=O)c1cc(NC(=O)Cc2ccccc2Cl)ccc1-n1cc2ccccc2n1 = 44
Cc1ccc(-c2ccc(NC(=O)Cc3ccccc3Cl)cc2S(N)(=O)=O)cn1 = 83
NS(=O)(=O)c1cc(NC(=O)Cc2ccccc2Cl)ccc1-n1cnc2ncccc21 = 97
NS(=O)(=O)c1cc(NC(=O)Cc2ccccc2Cl)ccc1-c1cnn(CC(F)F)c1 = 91
NS(=O)(=O)c1cc(NC(=O)Cc2ccccc2Cl)ccc1-c1cnc(C2CC2)nc1 = 91
NS(=O)(=O)c1cc(NC(=O)Cc2ccccc2Cl)ccc1-n1cnc2ccncc21 = 87
NS(=O)(=O)c1cc(NC(=O)Cc2ccccc2F)ccc1-n1nnc2c(F)cc(F)cc21 = 105
Cc1cn(-c2ccc(NC(=O)Cc3ccccc3Cl)cc2S(N)(=O)=O)cn1 = 96
CN(C(=O)c1cnn(-c2ccc(NC(=O)Cc3ccccc3Cl)cc2S(N)(=O)=O)c1)C1CC1 = 97
N#Cc1cnn(-c2ccc(NC(=O)Cc3cc(F)c(F)cc3Cl)cc2S(N)(=O)=O)c1 = 89
NS(=O)(=O)c1cc(NC(=O)Cc2ccccc2F)cnc1-n1cc(F)cn1 = 81
NS(=O)(=O)c1cc(NC(=O)Cc2ccccc2O)ccc1-n1cc(F)cn1 = 100
COc1cnn(-c2ccc(NC(=O)Cc3ccccc3Cl)cc2S(N)(=O)=O)c1 = 81
NS(=O)(=O)c1cc(NC(=O)Cc2ccc(C(F)F)cc2)ccc1-n1ncc(C(F)(F)F)n1 = 69
Cn1nc(-c2ccc(NC(=O)Cc3ccccc3Cl)cc2S(N)(=O)=O)cc1C(C)(C)O = 68
NS(=O)(=O)c1cc(NC(=O)Cc2ccccc2Cl)ccc1-c1cnc(NCC(F)(F)F)nc1 = 81
NS(=O)(=O)c1cc(NC(=O)Cc2cc(F)c(F)cc2Cl)ccc1-n1cc(Br)cn1 = 80
NS(=O)(=O)c1cc(NC(=O)C(F)(F)c2ccccc2Cl)ccc1-n1cc(Br)cn1 = 94
NS(=O)(=O)c1cc(NC(=O)Cc2ccccc2Cl)ccc1-n1cc(C(=O)N2CCC(F)(F)C2)cn1 = 84
NS(=O)(=O)c1cc(NC(=O)Cc2cccc(Cl)c2)ccc1-c1ccccc1 = 90
Cc1c(C#N)cnn1-c1ccc(NC(=O)Cc2ccccc2Cl)cc1S(N)(=O)=O = 94
NS(=O)(=O)c1cc(NC(=O)Cc2ccc(F)cc2F)ccc1-c1ccc(Cl)nc1 = 91
NS(=O)(=O)c1cc(NC(=O)Cc2ccccc2F)ccc1-c1cnn(C(F)F)c1 = 87
Cc1ccccc1CC(=O)Nc1ccc(-n2cc(Br)cn2)c(S(N)(=O)=O)c1 = 90
NS(=O)(=O)c1cc(NC(=O)Cc2ccccc2F)ccc1-c1cccnc1 = 91
NS(=O)(=O)c1cc(NC(=O)Cc2ccccc2Cl)ccc1-c1cnn(C2CCNCC2)c1 = 81
NS(=O)(=O)c1cc(NC(=O)Cc2cc(F)c(F)cc2Cl)ccc1-n1cc(F)cn1 = 43
NS(=O)(=O)c1cc(NC(=O)Cc2ccccc2Cl)ccc1-n1ncc2ccccc21 = 86

* * *

tested_target: human P2X4 (Homo sapiens, UniProt Q99571)
measurement_protocol: Human P2X4 HEK Cell FLIPR Assay
Assay type: cell-based
setup_conditions: HEK293, HEK293 cells, agonist Bz-ATP at EC80; percentage of maximal inhibition; read-out: Human P2X4 HEK Cells (FLIPR Assay) avg Efficacy [%]
Outcome label depends on Emax relative to 90%: at/above gives y, below gives n.

COc1ccc(CC(=O)Nc2ccc(-n3cc(C(F)(F)F)nn3)c(S(N)(=O)=O)c2)cc1 = n
Cc1ccccc1CC(=O)Nc1ccc(-n2cc(C#N)cn2)c(S(N)(=O)=O)c1 = n
NS(=O)(=O)c1cc(NC(=O)Cc2ccccc2Cl)ccc1-n1cc(CC(F)(F)F)cn1 = n
NS(=O)(=O)c1cc(NC(=O)Cc2ccccc2F)ccc1-n1ccc(C2CC2)n1 = n
NS(=O)(=O)c1cc(NC(=O)Cc2ccccc2Cl)ccc1-c1ccc(Cl)nc1 = y
Cc1nc(C)c(-c2ccc(NC(=O)Cc3ccccc3Cl)cc2S(N)(=O)=O)s1 = y
C[C@@H]1CC[C@H](C)N1c1cnn(-c2ccc(NC(=O)Cc3ccccc3Cl)cc2S(N)(=O)=O)c1 = n
Cn1nc(C(F)(F)F)cc1-c1ccc(NC(=O)Cc2ccccc2Cl)cc1S(N)(=O)=O = n
Cc1nn(-c2ccc(NC(=O)Cc3ccccc3Cl)cc2S(N)(=O)=O)cc1C#N = y
NS(=O)(=O)c1cc(NC(=O)Cc2ccccc2Cl)ccc1-n1cc(NCC(F)F)cn1 = y
NS(=O)(=O)c1cc(NC(=O)Cc2cccc(F)c2)ccc1-n1cc(F)cn1 = n
CC(C)Cc1ncn(-c2ccc(NC(=O)Cc3ccccc3Cl)cc2S(N)(=O)=O)n1 = n
Cc1ccc(F)c(CC(=O)Nc2ccc(-n3cc(Cl)cn3)c(S(N)(=O)=O)c2)c1Cl = n
NS(=O)(=O)c1cc(NC(=O)Cc2ccccc2Cl)ccc1-n1cccn1 = n
N#Cc1cnn(-c2ccc(NC(=O)Cc3cccc(O)c3Cl)cc2S(N)(=O)=O)c1 = n
COc1ccc(CC(=O)Nc2ccc(-n3cc(Cl)cn3)c(S(N)(=O)=O)c2)cc1 = n
CC(C)n1cc(-c2ccc(NC(=O)Cc3ccccc3Cl)cc2S(N)(=O)=O)cn1 = n
NS(=O)(=O)c1cc(NC(=O)Cc2ccccc2Cl)ccc1-c1cnn(C2CCC2)c1 = y
Cn1cc(-c2ncc(NC(=O)Cc3ccccc3Cl)cc2S(N)(=O)=O)cn1 = y
N#Cc1cnn(-c2ccc(NC(=O)Cc3cc(C(F)(F)F)ccc3Cl)cc2S(N)(=O)=O)c1 = y
COc1ccc(CC(=O)Nc2ccc(-n3cc(C(F)(F)F)cn3)c(S(N)(=O)=O)c2)cc1 = n
NS(=O)(=O)c1cc(NC(=O)Cc2ccc(Cl)cc2)ccc1-n1cc(Cl)cn1 = n
N#Cc1cnn(-c2ccc(NC(=O)Cc3ccc(F)cc3)cc2S(N)(=O)=O)c1 = n
NS(=O)(=O)c1cc(NC(=O)Cc2ccccc2F)ccc1-n1cc(Br)cn1 = n
NS(=O)(=O)c1cc(NC(=O)Cc2ccccc2F)ccc1-n1cnc(Cl)n1 = y
COc1cccc(Cl)c1CC(=O)Nc1ccc(-n2cc(C(F)(F)F)cn2)c(S(N)(=O)=O)c1 = n
CC(C(=O)Nc1cnn(-c2ccc(NC(=O)Cc3ccccc3Cl)cc2S(N)(=O)=O)c1)C(F)(F)F (racemic) [Example 508] = n
COCc1ncn(-c2ccc(NC(=O)Cc3ccccc3Cl)cc2S(N)(=O)=O)n1 = n
